All figures here come from patent US20190233528A1.

target_or_test_system: T1, recombinant human CD70 (AviTag, polyhistidine tag and chicken tenascin trimerization domain fused to the … (chicken; human, UniProt P10039 110-139, limits assumed)
T1 construct: domain: trimerization domain; Expressed in Expi293, purified by IMAC and SEC; Copies 3 is inferred from the trimerization domain; not shown: AviTag; polyhistidine tag
T1 sequence: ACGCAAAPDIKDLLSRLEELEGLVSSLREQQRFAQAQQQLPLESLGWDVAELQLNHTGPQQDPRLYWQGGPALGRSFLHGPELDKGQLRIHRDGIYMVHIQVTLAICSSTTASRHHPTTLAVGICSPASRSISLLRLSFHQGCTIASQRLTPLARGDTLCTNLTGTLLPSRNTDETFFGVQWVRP
measurement_description: SPR (Biacore 8K, 37 C): CD70 captured via anti-AviTag antibody on C1 chip, scFv-Fc as analyte; 1:1 Langmuir fit
Collected kon values appear next to each entry.

{"columns": ["binder", "readout_unit", "kon"],
 "data": [
  ["P13F04 anti-CD70 scFv-Fc fusion (Fc fusion, scFv-Fc expressed in Expi293; not shown: part of the hinge and Fc from a modified human IgG2) QVQLVQSGAEVKKPGSSVKVSCKASGGTFSSYAISWVRQAPGQGLEWMGEIIPIFGTASYAQKFQGRVTITADESTSTAYMELSSLRSEDTAVYYCARAGWDDSWFDYWGQGTLVTVSSGGGGSGGGGSGGGGSGGGGSELQSVLTQPPSASGTPGQRVTISCSGSNSNIGTNYVSWYQQLPGTAPKLLIYRSSRRPSGVPDRFSGSKSGTSASLAISGLRSEDEADYYCAAWDGSLSGHWVFGTGTKLTVL", "M⁻¹ s⁻¹", 97700],
  ["P08F08 anti-CD70 scFv-Fc fusion (Fc fusion, scFv-Fc expressed in Expi293; not shown: part of the hinge and Fc from a modified human IgG2) EVQLVQSGAEVKKPGESLKISCKGSGYGFTSYWIGWVRQMPGKGLEWMGIIHPDDSDTKYSPSFQGQVTISADKSISTAYLQWSSLKASDTAMYYCASSYLRGLWGGYFDYWGQGTLVTVSSGGGGSGGGGSGGGGSGGGGSELQSVLTQPPSASGTPGQRVTISCSGSSSNIGSNYVNWYQQLPGTAPKLLIYGDYQRPSGVPDRFSGSKSGTSASLAISGLRSEDEADYYCATRDDSLSGSVVFGTGTKLTVL", "M⁻¹ s⁻¹", "1.44e+06"]
]}
